Below, each of the molecules is paired with its reported z-score value.
Test: Plasmodium falciparum growth inhibition, primary screen, strain 3D7, DAPI fluorescence, 100 nL (AID 1184);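 note: parasites grown inside human red blood cells in medium with human serum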
Details: P. falciparum 3D7 growth, 3 d, higher = more signal

If you can, please state the reported z-score value of [N-]=[N+]=Nc1ccccc1C[C@]1(C(N)=O)N=C(c2ccc(OCCCO)cc2)O[C@H]1c1ccccc1N=[N+]=[N-] .
-2.65

And for OCCCC1=CC(c2ccc(CN3CCCC3)cc2)N(Cc2sc3ccccc3c2Cl)CC1 (centres undefined) ?
-3.1

Now try CCOC(=O)C[C@H]1[C@H](OC(=O)c2cc3ccccc3oc2=O)[C@@H](NC(=O)Cc2ccc(OC)cc2)c2cc(OCCCO)ccc2N1C(=O)c1ccc2ccccc2n1 .
-1.01

Please look at the following molecule next.
Endpoint output: z-score of CCOC(=O)C1=CC[C@@H](c2ccccc2C(F)(F)F)N(S(=O)(=O)c2ccc(C)cc2)[C@H]1c1ccc(C#N)cc1 . Value?
-2.2
